The measured values listed here are drawn from the supplement of paper PMC12764529.

- method.summary: folding stability dG unfold from chymotrypsin proteolysis; higher = more stable
Recorded folding stability dG unfold, one value per entry.
Write it as a number; the unit kcal/mol goes unstated.

Worked set:
Q: Determine its reported folding stability dG unfold: SAAKITEVDVEVGGDTITTTFRLEIDGKPYLAVTRLEPLTDPDGNPRFIAVTELYDEDGNLVATLPSDLSAG [r14_465_TrMRF]
Result: 2.33

Q: Determine its reported folding stability dG unfold: SAGGSAGGSAGGGLRKITFETPLSDFEELVKALGLNVVSAEVEPGAGGLAKVTLLVEEGSAGGSAGGSAGGS [r10_999_TrMRF]
Result: 1.84

Q: Determine its reported folding stability dG unfold: SAGGSIPADTVATLTLPDRDLAVRVELVDGTPRYLVTGPDGTPVGTLTPEEFAAFVAALPADARLDLRSAGG [r13_657_JUSTAS]
Result: 1.32

Q: Determine its reported folding stability dG unfold: SAGGSAGGIKYRVMVHNPESGRWHRIDDIEIDPPDGRIKIRFPGNGKEITIPPGYPIMISPDMLSAGGSAGG [r6_885_TrROS]
Result: 0.793

Q: Determine its reported folding stability dG unfold: SAGGSSMINLTITITVKDPSTGKVTTIPLNKKLTPEEIEELVKEIIEKIEKENPDKPIEVLKVEINSAGGSA [r2_59_JUSTAS]
Result: 2.48

New cases:
Q: Determine its reported folding stability dG unfold: SAGGSAGGSAGGSMKITKTLIPETGLYKVTITLPGGKPVEIEAPPSSSLEEVKKKAEKLSAGGSAGGSAGGS [r4_205_JUSTAS]
Result: -0.169

Q: Determine its reported folding stability dG unfold: SAGDAEEIAKKIEEAAREEFAARLGYPDLEILKVEVLEVDPVTGRVRVRVTVRLPDGRLLEAEFEVPVASAG [r5_20_TrMRF]
Result: 3.41

Q: Determine its reported folding stability dG unfold: SAGMKAYNIKELKIEKIEKKGNKIKIKISGKGKFYFKTFSNGSAIIYIKKTNKAYYIDSNGKIVYIKDTSAG [r5_348_TrMRF]
Result: 1.56

Q: Determine its reported folding stability dG unfold: SANVRRREIRIPAKDMPPNQIRDALRDLGFPPSKIENLDIERHKGNMITVKIYWTFENGQKQKIELHIPSAG [r14_30_TrROS]
Result: 1.29

Q: Determine its reported folding stability dG unfold: SAGGSAGGSKFEITEVSVELVEVDGKLYLKVSMTIKNEDGSTYKISLVYDLENNELYLSIEKVSAGGSAGGS [r12_1035_TrROS_Hall]
Result: 5.7

Q: Determine its reported folding stability dG unfold: SAGGSAGGSAKKKILVKKPDGRLLLIEIDKDKPNTVRIYDIDTGKKIELSVEDLKKLKIKKSAGGSAGGSAG [r3_451_TrROS_Hall]
Result: 2.35

Q: Determine its reported folding stability dG unfold: SAGGSAGGSAGGSMPTYRITVEVDGKKYTITVREGMSPEEIAKRLKELYPNLTVKIEPVSAGGSAGGSAGGS [r4_155_TrROS_Hall]
Result: 4.07

Q: Determine its reported folding stability dG unfold: SAGTIRLNGLELEVDIEWWPEHGYITINVTITWPNGRTMMMQIIIKVKPVKPPPPPPPKYDPDNGKPKASAG [r5_816_TrROS]
Result: 4.38

Q: Determine its reported folding stability dG unfold: SAGGSAGGSAPKEVVVLDLKISPVPDPRYFPAEFTVYIPENGKPFPVTAVFDPEGGEVTIGSAGGSAGGSAG [r3_1_TrMRF]
Result: 3.23

Q: Determine its reported folding stability dG unfold: SAGGEVIELKIKFKTPEQREKLKEIAKKLNAEVVEEKDGEVIIRFKTPEQAERALKEAEKLGAEVELSAGGS [r16_88_TrROS_Hall]
Result: 4.47

Q: Determine its reported folding stability dG unfold: SAGGGSISISLPAEELKALSPEDVIEVTAPDGTKIKAKPVKKGDTYPVTAEDPNNPKNATEMGTATLPSAGG [r13_745_JUSTAS]
Result: 0.4

Q: Determine its reported folding stability dG unfold: SAGGSAGGSAKKVIKAKILEVKVLPDGTGLVKLEGEDGLEVVIPLSILENISPDAIVTIEASAGGSAGGSAG [r3_315_TrMRF]
Result: 1.79

Q: Determine its reported folding stability dG unfold: SMIVKSEPVKDPNSDLTTTPVTITLPVREYDPSLGVTRERLVTINGTVITTLLEKHPDGSVISTVDVLPASA [r9_1058_JUSTAS]
Result: 0.69

Q: Determine its reported folding stability dG unfold: SAGGSAGGSKKPKITITIEILVKNEDGKLYLFRIEIEINENGEISIKMEIFELKDIKPGDILLSAGGSAGGS [r12_38_TrROS_Hall]
Result: 3.94

Q: Determine its reported folding stability dG unfold: SMKIVEVEVFEDPETGKLVVIVKLDGEEVVEVEEGEKVEIEVEPGDTLLVFVVDAETGEIKEEKEIKVEESA [r9_209_TrROS_Hall]
Result: 1.2

Q: Determine its reported folding stability dG unfold: SMPIEVRVDLERLEDGTLLAVIEIRHPDVQVAEDAAIELARELFPEDVELRIETTPDGRVIAPILLPLPESA [r9_646_TrMRF]
Result: 1.74

Q: Determine its reported folding stability dG unfold: SAGGSAGMMTDVEVEEYPGTGLVRITIRTPDAVVSGEGRFLSPELLEITISFPGAGKRTNELIPVRSAGGSA [r15_837_JUSTAS]
Result: 1.26

Q: Determine its reported folding stability dG unfold: SAGMKITLPKGVKSIKVEEVNGKKVIYIEVDGKIFVYDLKTGKLYIYDKKTGEKKEITIKKGDTITLKSAGG [r19_138_TrROS_Hall]
Result: 1.79

Q: Determine its reported folding stability dG unfold: SAGGSAGGSAGGLVPPDAVIPTETTAEEPVYVIDPVTGELTPIGPGVVRRKITRRVPRPSAGGSAGGSAGGS [r10_1115_JUSTAS]
Result: 0.863

Q: Determine its reported folding stability dG unfold: SAGGSASVSDVTTTTVTVTVEVTEDPATGLQRLTATHPDLSFERLVPAGTIPADTTVTLDVTVTTGSAGGSA [r15_190_JUSTAS]
Result: 0.452

Q: Determine its reported folding stability dG unfold: SAGGSAMYYRFEIPRPDGVIEEIWIKMTPEEAKALVEALEADPNVASVKVEAITEEEARKLGIFENSAGGSA [r15_39_JUSTAS]
Result: 4.46

Q: Determine its reported folding stability dG unfold: SAGGSAGGSAGGSPNPLLPPVRPKVILKDPKTGTTKTFTTEEEAKKAVESGEYTVLKIESAGGSAGGSAGGS [r10_520_JUSTAS]
Result: 0.353
